Data credit: patent US20090163586A1

- EXPERIMENTAL TARGET: human mPGES-1 (Homo sapiens, UniProt O14684)
Please assign -1 whenever IC50 is at or above 900 nM, and 1 whenever it is below.

Input: API: query returns whether the compound falls strictly under 900 nM in IC50. Query: COc1ccc(Br)cc1/C=C/S(=O)(=O)Nc1cc(F)ccc1S(N)(=O)=O [Example 26]
Output: 1

Input: API: query returns whether the compound falls strictly under 900 nM in IC50. Query: NS(=O)(=O)c1ccccc1NS(=O)(=O)c1cccc(F)c1F [Example 146]
Output: -1

Input: API: query returns whether the compound falls strictly under 900 nM in IC50. Query: NS(=O)(=O)c1ccccc1NS(=O)(=O)CCc1ccc(C2CCCC2)cc1 [Example 69]
Output: 1

Input: API: query returns whether the compound falls strictly under 900 nM in IC50. Query: NS(=O)(=O)c1ccc(Cl)cc1NS(=O)(=O)CCc1ccc(Cl)c(Cl)c1 [Example 231]
Output: 1

###

- EXPERIMENTAL TARGET: UniProt:O14684
Please assign not met whenever IC50 is at or above 1000 nM, and met whenever it is below.

Input: API: query returns whether the compound falls strictly under 1000 nM in IC50. Query: COc1cccc(-c2cccc(S(=O)(=O)Nc3ccccc3S(N)(=O)=O)c2)n1
Output: not met

Input: API: query returns whether the compound falls strictly under 1000 nM in IC50. Query: NS(=O)(=O)c1ccccc1NS(=O)(=O)CCc1ccc(Cl)cc1
Output: met

Input: API: query returns whether the compound falls strictly under 1000 nM in IC50. Query: NS(=O)(=O)c1ccccc1NS(=O)(=O)c1cccc(-c2cccc(C(F)(F)F)c2)c1
Output: not met

Input: API: query returns whether the compound falls strictly under 1000 nM in IC50. Query: NS(=O)(=O)c1ccccc1NS(=O)(=O)/C=C/c1ccccc1F
Output: not met

Input: API: query returns whether the compound falls strictly under 1000 nM in IC50. Query: NS(=O)(=O)c1c(F)cccc1NS(=O)(=O)/C=C/c1cccc(Cl)c1
Output: met

Input: API: query returns whether the compound falls strictly under 1000 nM in IC50. Query: NS(=O)(=O)c1cc(CO)ccc1NS(=O)(=O)CCc1ccc(C#CC2CCCC2)cc1
Output: met

Input: API: query returns whether the compound falls strictly under 1000 nM in IC50. Query: NS(=O)(=O)c1cc(OCc2ccccn2)ccc1NS(=O)(=O)CCc1ccc(Cl)cc1
Output: not met

Input: API: query returns whether the compound falls strictly under 1000 nM in IC50. Query: NS(=O)(=O)c1ccccc1NS(=O)(=O)c1ccc(Cl)c(Cl)c1
Output: not met

###

Target sequence: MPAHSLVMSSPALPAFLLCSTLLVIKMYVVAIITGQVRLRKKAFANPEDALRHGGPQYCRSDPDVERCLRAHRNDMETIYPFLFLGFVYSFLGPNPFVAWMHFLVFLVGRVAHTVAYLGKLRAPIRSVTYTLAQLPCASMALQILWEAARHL
pIC50: −log10 of the molar value.
Short version: pIC50 at least 6 is 1, less is -1.

Input: hey, is pIC50 for this one >= 6? CC(C)(O)C#Cc1ccc(/C=C/S(=O)(=O)Nc2ccccc2S(N)(=O)=O)cc1 [Example 209]
Output: 1

Input: hey, is pIC50 for this one >= 6? NS(=O)(=O)c1ccccc1NS(=O)(=O)c1ccc(Cl)s1 [Example 159]
Output: -1

Input: hey, is pIC50 for this one >= 6? NS(=O)(=O)c1c(F)cccc1NS(=O)(=O)/C=C/c1ccc(-c2ccccc2)cc1 [Example 50]
Output: 1

Input: hey, is pIC50 for this one >= 6? NS(=O)(=O)c1ccccc1NS(=O)(=O)c1cccc(-c2ccccc2)c1 [Example 129]
Output: -1

Input: hey, is pIC50 for this one >= 6? NS(=O)(=O)c1c(F)cccc1NS(=O)(=O)/C=C/c1ccc(Br)cc1 [Example 91]
Output: 1

Input: hey, is pIC50 for this one >= 6? NS(=O)(=O)c1ccccc1NS(=O)(=O)/C=C/c1ccccc1O [Example 225]
Output: -1

Input: hey, is pIC50 for this one >= 6? CC(C)(C)c1ccc(CCS(=O)(=O)Nc2ccccc2S(N)(=O)=O)cc1 [Example 70]
Output: 1

Input: hey, is pIC50 for this one >= 6? NS(=O)(=O)c1cc(Cl)ccc1NS(=O)(=O)CCc1ccc(Cl)c(Cl)c1 [Example 202]
Output: -1
